# Assayed system: human plasma kallikrein (Homo sapiens (Human), UniProt P03952)
# Sequence (P03952 391-638): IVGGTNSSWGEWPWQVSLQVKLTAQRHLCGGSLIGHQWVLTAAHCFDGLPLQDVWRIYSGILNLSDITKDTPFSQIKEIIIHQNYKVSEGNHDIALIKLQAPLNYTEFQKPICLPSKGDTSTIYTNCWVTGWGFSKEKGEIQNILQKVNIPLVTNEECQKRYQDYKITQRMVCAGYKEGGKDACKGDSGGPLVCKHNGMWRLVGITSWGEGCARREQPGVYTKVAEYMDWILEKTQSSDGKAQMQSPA
# Sequence (P03952 20-390 partner): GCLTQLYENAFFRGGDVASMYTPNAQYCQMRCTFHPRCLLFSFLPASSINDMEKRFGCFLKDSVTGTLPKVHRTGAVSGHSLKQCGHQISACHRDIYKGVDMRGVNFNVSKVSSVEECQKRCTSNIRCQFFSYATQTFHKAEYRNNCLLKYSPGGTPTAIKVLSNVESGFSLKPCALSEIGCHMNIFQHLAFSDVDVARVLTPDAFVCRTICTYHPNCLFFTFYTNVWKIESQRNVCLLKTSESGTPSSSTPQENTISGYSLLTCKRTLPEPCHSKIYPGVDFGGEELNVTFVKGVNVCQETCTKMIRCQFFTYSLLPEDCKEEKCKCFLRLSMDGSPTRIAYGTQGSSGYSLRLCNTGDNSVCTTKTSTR
# Experiment notes: Kallikrein inhibition assay (FLINT) utilizing a quenched AMC peptide substrate
# Assay type: biochemical
# Stated conditions: 30 min preincubation, kinetic reads over 30 min, Z-Gly-Pro-Arg-AMC substrate 50 μM; read-out: Kallikrein Kin Inh IC50
pIC50: −log10 of the molar value.
Readout name: pIC50

Solved entries:
Molecule	Assayed system	Observed
[2H]c1nc([C@@H]2CC[C@@H]3CC(c4c(-n5cnnn5)ccc(Cl)c4F)=CC(=O)N32)[nH]c1-c1c(F)nc(N)c([2H])c1[2H] [Example 149]	human plasma kallikrein (Homo sapiens (Human), UniProt P03952)	8.12
NC(=O)c1ccc(-c2c[nH]c([C@@H]3CC[C@H]4CC(c5c(-n6cnnn6)ccc(Cl)c5F)=CC(=O)N43)n2)cc1F [Example 198]	human plasma kallikrein (Homo sapiens (Human), UniProt P03952)	7.84
O=C1C=C(c2c(-n3cnnn3)ccc(Cl)c2F)C[C@H]2CC[C@@H](c3ncc(-c4ccnc(-n5ccnn5)c4)[nH]3)N12 [Example 85]	human plasma kallikrein (Homo sapiens (Human), UniProt P03952)	8.05
CN(C)c1ccccc1-c1c[nH]c([C@@H]2CCC3CC(c4c(-n5cnnn5)ccc(Cl)c4F)=CC(=O)N32)n1 (stereo partly shown) [Example 289]	human plasma kallikrein (Homo sapiens (Human), UniProt P03952)	6.31
CNc1n[nH]c2cc(-c3cnc([C@@H]4CC[C@H]5CC(c6c(-n7cnnn7)ccc(Cl)c6F)=CC(=O)N54)[nH]3)ccc12 [Example 265]	human plasma kallikrein (Homo sapiens (Human), UniProt P03952)	9.00

A = O=C1C=C(c2c(-n3cnnn3)ccc(Cl)c2F)C[C@H]2CC[C@@H](c3ncc(-c4ccnc(-n5nccn5)c4)[nH]3)N12 [Example 86]
B = CCN(CCO)c1nccc(-c2cnc([C@@H]3CC[C@H]4CC(c5c(-n6cnnn6)ccc(Cl)c5F)=CC(=O)N43)[nH]2)c1F (single isomer, unassigned) [Example 135]
C = O=C1C=C(c2c(-n3cnnn3)ccc(Cl)c2F)C[C@H]2CC[C@H](c3ncc(-c4ccnc(N5CCC5)c4F)[nH]3)N12 (single isomer, unassigned) [Example 110]
D = O=C1C=C(c2c(-n3cnnn3)ccc(Cl)c2F)CC2CC[C@@H](c3ncc(-c4ccc5[nH]c(=O)[nH]c5c4)[nH]3)N12 (stereo partly shown) [Example 312]
E = [2H]C1([2H])C[C@@H](c2ncc(-c3ccnc(CO)c3F)[nH]2)N2C(=O)C=C(c3c(-n4cnnn4)ccc(Cl)c3F)C([2H])([2H])[C@]21[2H] [Example 33]
Query: Sort low-to-high on pIC50, please. # list labels per requested ordering
Response: E, B, C, A, D
(E: 7.48, B: 7.81, C: 8.16, A: 8.49, D: 9.22)

1 = NC(=O)c1cc(-c2cnc([C@@H]3CC[C@@H]4CC(c5c(-n6cnnn6)ccc(Cl)c5F)=CC(=O)N43)[nH]2)ccn1 (single isomer, unassigned) [Example 206]
2 = O=C(O)c1sc(-c2cnc([C@@H]3CC[C@@H]4CC(c5c(-n6cc(C(F)(F)F)nn6)ccc(Cl)c5F)=CC(=O)N43)[nH]2)cc1F (single isomer, unassigned) [Example 195]
Query: Please let me know which one, 1 or 2 , has a lower measured pIC50 value. Your answer should be the label attached to the chosen record.
Response: 2
(2: 7.66, 1: 8.02)

1 = Nc1ccc(-c2cnc([C@@H]3CC[C@@H]4CC(c5c(-n6cnnn6)ccc(Cl)c5F)=CC(=O)N43)[nH]2)c(F)n1 [Example 358]
2 = Nc1ccnn1-c1cc(-c2cnc([C@H]3CC[C@@H]4CC(c5c(-n6cnnn6)ccc(Cl)c5F)=CC(=O)N43)[nH]2)ccn1 (single isomer, unassigned) [Example 49]
Query: Which numeric pIC50 is bigger, that of 1 or that of 2 ? Your answer should be the label attached to the chosen record.
Response: 1
